System: HL-60(TB) leukemia
Assay: NCI-60 one-dose screen, 48 h (100 = growth as untreated, 0 = no growth, -100 = all killed)
Conditions: 10 µM unless noted
About 83,000 compounds went through this panel and 20% of them were active in at least one assay; those are over-represented in the sample as a whole.
Assign labels as follows, please: Met for growth below 50%; Not met for growth equal to or exceeding 50%.

Prompt: Does this compound meet the criterion growth < 50%? NCCCc1nnc(CCC(=O)c2nc3ccccc3[nH]2)o1
Response: Not met

Prompt: Does this compound meet the criterion growth < 50%? Cc1c(O)nc(N)[nH]c1=O
Response: Not met

Prompt: Does this compound meet the criterion growth < 50%? CCc1ccc(-c2ccc(Nc3ccccc3)nn2)cc1S(N)(=O)=O
Response: Met

Prompt: Does this compound meet the criterion growth < 50%? CC1CN(CCCOC(=O)Nc2ccc(Cl)cc2)CCN1C(C)(C)C (stereo unspecified)
Response: Not met

Prompt: Does this compound meet the criterion growth < 50%? Clc1ccc2c(NCCNc3nc(N4CCCC4)nc4ccccc34)ccnc2c1
Response: Met

Prompt: Does this compound meet the criterion growth < 50%? COc1ccc(S(=O)(=O)Oc2ccc(-c3sc4cc(OS(=O)(=O)c5ccc(OC)cc5)ccc4c3C(=O)c3ccc(OCCN4CCCCC4)cc3)cc2)cc1
Response: Not met

These measurements were taken from PubChem BioAssay (NCI).
